Recorded values, source patent US7276337B2.

Target: Ribonuclease A (Bos taurus)
Sequence (P61823 27-150): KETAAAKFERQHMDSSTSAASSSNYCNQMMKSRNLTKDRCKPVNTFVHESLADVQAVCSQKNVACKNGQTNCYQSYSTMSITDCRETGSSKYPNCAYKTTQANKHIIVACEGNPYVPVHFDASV
Assay: Visual detection ribonuclease assay, cleavage of Substrate ODN by RNase A
Format: biochemical, mammalian
Set-up: key: +++ = maximum intensity; ++ = moderate intensity; + = faint but above background; − = negative (identical to background)
Conditions: RNase A 10 pg/ml; visual inspection, UV excitation; Substrate 500 nM; 37° C. 60 minutes
observed.property: Sensitivity of Substrate ODN to Ribonuclease A, relative signal intensity

{"substance": "5′ Fluorescein-AcguA-Dabcyl 3′ (NACGUAN; 5' fluorescein and 3' Dabcyl labels, nucleotide chemistry not given here) [SEQ ID NO:15]", "test.system": "Ribonuclease A (Bos taurus)", "result": "−"}
{"substance": "5′ Fluorescein-AgucaA-Dabcyl 3′ (NAGUCAAN; 5' fluorescein and 3' Dabcyl labels, nucleotide chemistry not given here) [SEQ ID NO:23]", "test.system": "Ribonuclease A (Bos taurus)", "result": "−"}
{"substance": "5′ Fluorescein-AcuaA-Dabcyl 3′ (NACUAAN; 5' fluorescein and 3' Dabcyl labels, nucleotide chemistry not given here) [SEQ ID NO:17]", "test.system": "Ribonuclease A (Bos taurus)", "result": "−"}
{"substance": "5′ Fluorescein-AaggucA-QSY-7 3′ (NAAGGUCAN; 5' fluorescein and 3' QSY-7 labels, nucleotide chemistry not given here) [SEQ ID NO:28]", "test.system": "Ribonuclease A (Bos taurus)", "result": "+"}
{"substance": "5′ Fluorescein-AcgcA-Dabcyl 3′ (NACGCAN; 5' fluorescein and 3' Dabcyl labels, nucleotide chemistry not given here) [SEQ ID NO:13]", "test.system": "Ribonuclease A (Bos taurus)", "result": "−"}
